# System: H. influenzae ATCC 49247
# assay overview: MIC, NCCLS broth microdilution
# Type: cell-based, Haemophilus influenzae
# particulars: Haemophilus influenzae, ATCC49247, H. influenzae ATCC 49247; 5% CO2; Table 1; read-out: MIC
measured property: MIC (µg/mL)
Answers are plain numbers, in µg/mL.

Query MIC for CC[C@H]1OC(=O)[C@H](C)C(=O)[C@H](C)[C@@H](OC2OC(C)C(O)C(N(C)C)C2O)[C@@](C)(OC)C[C@@H](C)C(=O)[C@H](C)[C@H]2N(CCCCn3cc(Cn4nnc5ccccc54)nn3)C(=O)O[C@]12C (stereo partly drawn)
2

Please examine the following record next.
Query MIC for CC[C@H]1OC(=O)[C@H](C)C(=O)[C@H](C)[C@@H](OC2OC(C)CC(N(C)C)C2O)[C@@](C)(OC)C[C@@H](C)C(=O)[C@H](C)[C@H]2N(CCCCn3cc(Cn4nnc5ccccc54)nn3)C(=O)O[C@]12C (stereo partly drawn)
0.5

----------
Reported values: MIC for S. pyogenes 1850, one per item.

As a guide, the following entries are already answered.
Query MIC for CC[C@H]1OC(=O)[C@@](C)(F)C(=O)[C@H](C)[C@@H](OC2OC(C)CC(N(C)C)C2O)[C@@](C)(OC)C[C@@H](C)C(=O)[C@H](C)[C@H]2N(CCCCn3cc(-c4cccc(N)n4)nn3)C(=O)O[C@]12C (stereo partly shown)
0.25 µg/mL

Query MIC for CC[C@H]1OC(=O)[C@@](C)(F)C(=O)[C@H](C)[C@@H](OC2OC(COC(C)=O)CC(N(C)C)C2O)[C@@](C)(OC)C[C@@H](C)C(=O)[C@H](C)[C@H]2N(CCCCn3cc(-c4cccc(N)n4)nn3)C(=O)O[C@]12C (stereo partly shown)
0.25 µg/mL

Query MIC for CC[C@H]1OC(=O)[C@H](C)C(=O)[C@H](C)[C@@H](O[C@@H]2O[C@H](C)C[C@H](N(C)C)[C@H]2O)[C@](C)(OC)C[C@@H](C)C(=O)[C@H](C)[C@H]2N(CCCCn3cnc(-c4cccnc4)c3)C(=O)O[C@]12C [Telithromycin, reference compound]
8 µg/mL

Please examine the following record next.
Query MIC for CC[C@H]1OC(=O)[C@@](C)(F)C(=O)[C@H](C)[C@@H](O[C@@H]2O[C@H](C)C[C@H](N(C)C)[C@H]2O)[C@](C)(OC)C[C@@H](C)C(=O)[C@H](C)[C@H]2N(CCCCn3cc(-c4cccc(N)c4)nn3)C(=O)O[C@]12C
≤ 0.125 µg/mL

----------
# Test system: S. pneumoniae 303(ErmB)
# assay overview: MIC, NCCLS broth microdilution
# Type: cell-based, Streptococcus pneumoniae
# particulars: Streptococcus pneumoniae; S. pneumoniae 303(ErmB); Table 1; read-out: MIC
Answer each item with its documented MIC.

As a guide, the following entries are already answered.
Query MIC for CC[C@H]1OC(=O)[C@H](C)C(=O)[C@H](C)[C@@H](OC2OC(C)CC(N(C)C)C2O)[C@@](C)(OC)C[C@@H](C)C(=O)[C@H](C)[C@H]2N(CCCCn3cc(Cn4nnc5ccccc54)nn3)C(=O)O[C@]12C (some centres unmarked) [OP-1007]
> 64 mg/L

Query MIC for CC[C@H]1OC(=O)[C@H](C)[C@@H](O[C@H]2C[C@@](C)(OC)[C@@H](O)[C@H](C)O2)[C@H](C)[C@@H](O[C@@H]2O[C@H](C)C[C@H](N(C)C)[C@H]2O)[C@](C)(O)C[C@@H](C)CN(C)[C@H](C)[C@@H](O)[C@]1(C)O [Azithromycin, reference compound]
0.5 mg/L

# map each compound to its MIC
1. CC[C@H]1OC(=O)[C@H](C)C(=O)[C@H](C)[C@@H](OC2OC(C)C(O)C(N(C)C)C2O)[C@@](C)(OC)C[C@@H](C)C(=O)[C@H](C)[C@H]2N(CCCCn3cc(Cn4nnc5ccccc54)nn3)C(=O)O[C@]12C (some centres unmarked) [OP-1071]
2. CC[C@H]1OC(=O)[C@H](C)C(=O)[C@H](C)[C@@H](OC(=O)C2CN(C(=O)OC(C)(C)C)C(C)(C)O2)[C@@](C)(OC)C[C@@H](C)C(=O)[C@H](C)[C@H]2N(CCCCn3cnc(-c4cccnc4)c3)C(=O)O[C@]12C (some centres unmarked) [OP-1086]
3. CC[C@H]1OC(=O)[C@H](C)C(=O)[C@H](C)[C@@H](O[C@@H]2O[C@H](C)C[C@H](N(C)C)[C@H]2O)[C@](C)(OC)C[C@@H](C)C(=O)[C@H](C)[C@H]2N(CCCCn3cnc(-c4cccnc4)c3)C(=O)O[C@]12C [Telithromycin, reference compound]

> 64 mg/L
0.25 mg/L
≤ 0.125 mg/L
